These data points were gathered from patent US20230072683A1.

- TGT: DNA-PK(h) (Homo sapiens)
- ASSAY NOTES: Evaluation of inhibitory activity against DNA-PK (HTRF kinase assay, GST-cMyc-p53 substrate)
- Type: biochemical
- COND: compound concentration 0.1 μM; read-out: EXP_VALUE(% Inhibition) DNA-PK(h) 0.1 μM
PARAMETER MEASURED: inhibition at 0.1 µM (%)

The following molecules have reported results that may help.
[
  {
    "SMI": "C[C@H](Nc1ncnc2[nH]ccc(=O)c12)c1c(Cl)c2cccc(-c3nc4ccccc4o3)c2c(=O)n1-c1ccccc1",
    "QUANTITY UNIT": "%",
    "inhibition at 0.1 µM": 96
  },
  {
    "SMI": "C[C@H](Nc1ncnc2[nH]ccc(=O)c12)c1c(Cl)c2cccc(-c3ccc(-c4ccccc4)nc3)c2c(=O)n1-c1ccccc1",
    "QUANTITY UNIT": "%",
    "inhibition at 0.1 µM": 72
  },
  {
    "SMI": "C[C@H](Nc1ncnc2[nH]ccc(=O)c12)c1c(Cl)c2cccc(-c3ccc(C4CC4)cc3)c2c(=O)n1-c1ccccc1",
    "QUANTITY UNIT": "%",
    "inhibition at 0.1 µM": 74
  },
  {
    "SMI": "C[C@H](Nc1ncnc2[nH]ccc(=O)c12)c1c(Cl)c2cccc(-c3ccc4[nH]ccc4c3)c2c(=O)n1-c1ccccc1",
    "QUANTITY UNIT": "%",
    "inhibition at 0.1 µM": 92
  }
]

1 = C[C@H](Nc1ncnc2[nH]ccc(=O)c12)c1c(Cl)c2cccc(OCc3ccccc3)c2c(=O)n1-c1ccccc1
2 = C[C@H](Nc1ncnc2[nH]ccc(=O)c12)c1c(Cl)c2cccc(-c3ccc4nccn4c3)c2c(=O)n1-c1ccccc1
Pick one, 1 or 2 : lowest reported inhibition at 0.1 µM. Mark your selection by writing its label.
1

---

- TGT: DNA-PK(h) (Homo sapiens)
- ASSAY NOTES: Evaluation of inhibitory activity against DNA-PK (HTRF kinase assay, GST-cMyc-p53 substrate)
- Type: biochemical
- COND: compound concentration 0.1 μM; read-out: EXP_VALUE(% Inhibition) DNA-PK(h) 0.1 μM
PARAMETER MEASURED: inhibition at 0.1 µM (%)

The following compounds have reported results that may help.
[
  {
    "SMI": "CCNc1cccc2c(Cl)c([C@H](C)Nc3ncnc4[nH]ccc(=O)c34)n(-c3ccccc3)c(=O)c12",
    "TGT": "DNA-PK(h) (Homo sapiens)",
    "inhibition at 0.1 µM [%]": 59
  },
  {
    "SMI": "C[C@H](Nc1ncnc2[nH]ccc(=O)c12)c1c(Cl)c2cccc(-c3cc(F)cc(Cl)c3)c2c(=O)n1-c1ccccc1",
    "TGT": "DNA-PK(h) (Homo sapiens)",
    "inhibition at 0.1 µM [%]": 66
  },
  {
    "SMI": "C[C@H](Nc1ncnc2[nH]ccc(=O)c12)c1c(Cl)c2cccc(-c3ccc(-c4cccs4)cc3)c2c(=O)n1-c1ccccc1",
    "TGT": "DNA-PK(h) (Homo sapiens)",
    "inhibition at 0.1 µM [%]": 45
  },
  {
    "SMI": "C[C@H](Nc1ncnc2[nH]ccc(=O)c12)c1c(Cl)c2cccc(N3CCN(c4ccccc4O)CC3)c2c(=O)n1-c1ccccc1",
    "TGT": "DNA-PK(h) (Homo sapiens)",
    "inhibition at 0.1 µM [%]": 56
  },
  {
    "SMI": "C[C@H](Nc1ncnc2[nH]ccc(=O)c12)c1c(Cl)c2cccc(OCC(F)(F)F)c2c(=O)n1-c1ccccc1",
    "TGT": "DNA-PK(h) (Homo sapiens)",
    "inhibition at 0.1 µM [%]": 82
  }
]

A = Cc1cc(F)ccc1-c1cccc2c(Cl)c([C@H](C)Nc3ncnc4[nH]ccc(=O)c34)n(-c3ccccc3)c(=O)c12
B = C[C@H](Nc1ncnc2[nH]ccc(=O)c12)c1c(Cl)c2cccc(N3CCc4ccsc4C3)c2c(=O)n1-c1ccccc1
Rank A against B by their inhibition at 0.1 µM values and give the higher one. Mark your selection by writing its label.
A
